Hello, the source for this data is ChEMBL document CHEMBL1201862, in case you need it.

Listing of recorded GI50 by entry.
- Test system: MCF7
- procedure.text: NCI tumour cell line growth inhibition, 48 h
Activity calls are given as the source filed them. No stated cut-off is given here; in the data, active = GI50 up to about 1.1 µM and inactive = higher.

Completed entries (count: 4):
INSERT INTO assay_data (compound, assayed_target, test_value) VALUES
  ('CCCC(CCC(N)=O)(CCC(N)=O)[N+](=O)[O-]', 'MCF7', '> 100 µM (inactive)'),
  ('N#Cc1ccc(NC(=O)C(CC(=O)OCc2ccccc2)NC(=O)OCc2ccccc2)cc1 (stereo not given)', 'MCF7', '> 10 µM (inactive)'),
  ('C=C1C(=O)[C@]23C[C@H]1C[C@@H](O)[C@H]2[C@]1(COC3=O)[C@@H](OC(C)=O)CC[C@@](C)(COC(C)=O)[C@H]1C=O', 'MCF7', '17.8 µM (inactive)'),
  ('Cc1ccc(/N=C2\C(=N/c3ccc(C)cc3)N(c3ccc(C)cc3)C(=S)N2C(=O)c2ccccc2)cc1', 'MCF7', '> 100 µM (inactive)');

Please look at the following compound next.
The recorded GI50 with MCF7 for Clc1ccc(-c2c3nc(c(-c4ccc(Cl)cc4)c4ccc([nH]4)c(-c4ccc(Cl)cc4)c4nc(c(-c5ccc(Cl)cc5)c5ccc2[nH]5)C=C4)C=C3)cc1 was > 100 µM (inactive)

###

- System: U-251
- procedure.text: NCI tumour cell line growth inhibition, 48 h
Calls of active or inactive are those of the source. Cut-off read from the data, not from the text of the source: active = GI50 up to about 1.1 µM and inactive = higher. Peptide text beside a SMILES is read from it. * marks the point of attachment. Cbz = O=C(OCc1ccccc1)*; CH2Cl = ClC*
observation.type: GI50

These recorded examples may help you get a feel for the data.
INSERT INTO measurements (compound, test_value) VALUES
  ('O=C1NCC2(CCN(Cc3ccccc3)CC2)N1', '> 100 µM (inactive)'),
  ('COc1cc(-c2[o+]c3cc(O)cc(OC4OC(CO)C(O)C(O)C4O)c3cc2OC2OC(CO)C(O)C(O)C2O)cc(OC)c1O (stereo not given)', '> 100 µM (inactive)'),
  ('COc1cc(/C=C/C=C2\CC/C(=C\C=C\c3ccc(O)c(OC)c3)C2=O)ccc1O', '> 100 µM (inactive)'),
  ('CC(C)CC(NC(=O)OCc1ccccc1)C(=O)NC(Cc1ccccc1)C(=O)CCl (stereo not drawn) (Cbz-Leu-Phe-CH2Cl; configuration not given here)', '8.38 µM (inactive)');

The recorded GI50 for entry C=C(C)C1CC(=O)C(C)=C(O)C1 (stereo not given) equals > 100 µM (inactive)

###

- Tested on: HOP-18
- procedure.text: NCI tumour cell line growth inhibition, 48 h
The source made the active and inactive calls. Rule as the data show it: active = GI50 up to about 1.1 µM and inactive = higher.
// classify into 1 for active, 0 for inactive

Dear colleague, could you share the recorded outcome for CC(=O)C1(O)CCC2(O)C3(O)CC=C4CC(O)CCC4(C)C3CC(OC(=O)c3ccc(O)cc3)C12C.COC1CC(OC2C(C)OC(OC3C(C)OC(OC4CCC5(C)C(=CCC6(O)C5CC(OC(=O)c5ccc(O)cc5)C5(C)C(O)(C(C)=O)CCC65O)C4)CC3OC)CC2OC)OC(C)C1O (stereo not given) when you have a moment? 0

How was CCCCCCCCCCCCCCCCCCNC(=O)OCC(CNS(=O)(=O)CCC[n+]1cccc2ccccc21)COC (stereo not given) classified in this test? 0

For CN(C)CC1CCCC(CN(C)C)C1=NOC(=O)c1ccccc1 (stereo not given) , what call appears in the results of this test? 0

What classification did CCc1cc2c(c3[nH]ccc13)[C@@H](C)C[C@H]2C end up with in this test? 0
